Assay system 5838 Ewing sarcoma cells (EWS-ERG); read-out recorded as GI50.
Express your answer in nM, writing the number without its unit.

COC(=O)C(Cc1ccccc1)NC(=O)C(Cc1ccccc1)NC(=O)C(OC)C1Cc2cc3cc(OC4CC(OC5CC(O)C(O)C(C)O5)C(O)C(C)O4)c(C)c(O)c3c(O)c2C(=O)C1OC1CC(OC2CC(OC3CC(C)(O)C(O)C(C)O3)C(O)C(C)O2)C(O)C(C)O1 (centres unmarked) : 579
COC(=O)C(Cc1c[nH]c2cc(F)ccc12)NC(=O)C(OC)C1Cc2cc3cc(OC4CC(OC5CC(O)C(O)C(C)O5)C(O)C(C)O4)c(C)c(O)c3c(O)c2C(=O)C1OC1CC(OC2CC(OC3CC(C)(O)C(O)C(C)O3)C(O)C(C)O2)C(O)C(C)O1 (centres unmarked) : 466
C=CCOc1ccc2[nH]cc(CC(NC(=O)C(OC)C3Cc4cc5cc(OC6CC(OC7CC(O)C(O)C(C)O7)C(O)C(C)O6)c(C)c(O)c5c(O)c4C(=O)C3OC3CC(OC4CC(OC5CC(C)(O)C(O)C(C)O5)C(O)C(C)O4)C(O)C(C)O3)C(=O)OC)c2c1 (centres unmarked) : 24
COC(=O)C(Cc1cn(C)c2ccccc12)NC(=O)C(OC)C1Cc2cc3cc(OC4CC(OC5CC(O)C(O)C(C)O5)C(O)C(C)O4)c(C)c(O)c3c(O)c2C(=O)C1OC1CC(OC2CC(OC3CC(C)(O)C(O)C(C)O3)C(O)C(C)O2)C(O)C(C)O1 (centres unmarked) : 121
COC(=O)C(Cc1c[nH]c2ccccc12)NC(=O)C(Cc1c[nH]c2ccccc12)NC(=O)C(OC)C1Cc2cc3cc(OC4CC(OC5CC(O)C(O)C(C)O5)C(O)C(C)O4)c(C)c(O)c3c(O)c2C(=O)C1OC1CC(OC2CC(OC3CC(C)(O)C(O)C(C)O3)C(O)C(C)O2)C(O)C(C)O1 (centres unmarked) : 53

Which GI50 value is on record for COC(=O)C(Cc1c[nH]c2ccccc12)NC(=O)C(OC)C1Cc2cc3cc(OC4CC(OC5CC(O)C(O)C(C)O5)C(O)C(C)O4)c(C)c(O)c3c(O)c2C(=O)C1OC1CC(OC2CC(OC3CC(C)(O)C(O)C(C)O3)C(O)C(C)O2)C(O)C(C)O1 (centres unmarked) [MTMSA-Trp (3), Mithramycin SA-Tryptophan, reference compound] ?
6

Which GI50 value is on record for COC(=O)C(Cc1c[nH]c2ccccc12)NC(=O)C(Cc1ccccc1)NC(=O)C(OC)C1Cc2cc3cc(OC4CC(OC5CC(O)C(O)C(C)O5)C(O)C(C)O4)c(C)c(O)c3c(O)c2C(=O)C1OC1CC(OC2CC(OC3CC(C)(O)C(O)C(C)O3)C(O)C(C)O2)C(O)C(C)O1 (centres unmarked) ?
149

Which GI50 value is on record for COC(=O)C(Cc1ccccc1)NC(=O)C(Cc1c[nH]c2ccccc12)NC(=O)C(OC)C1Cc2cc3cc(OC4CC(OC5CC(O)C(O)C(C)O5)C(O)C(C)O4)c(C)c(O)c3c(O)c2C(=O)C1OC1CC(OC2CC(OC3CC(C)(O)C(O)C(C)O3)C(O)C(C)O2)C(O)C(C)O1 (centres unmarked) ?
39
